These data points were gathered from patent US7919468B2.

Let's go through some IC50 measurements on UniProtKB A0A5F9DQW2 together.
Sequence (A0A5F9DQW2 1-212): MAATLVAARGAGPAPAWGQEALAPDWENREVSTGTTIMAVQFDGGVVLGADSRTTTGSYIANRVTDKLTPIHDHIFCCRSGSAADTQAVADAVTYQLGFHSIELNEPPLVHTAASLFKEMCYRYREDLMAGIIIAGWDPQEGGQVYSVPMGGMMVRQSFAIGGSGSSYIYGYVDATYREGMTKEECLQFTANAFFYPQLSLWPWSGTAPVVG
Peptide text beside a SMILES is read from it. * marks the point of attachment. Boc = CC(C)(C)OC(=O)*; NHBn = c1ccc(CN*)cc1
measureName: IC50 (µM)

C[C@H](NC(=O)[C@H](Cc1ccc(OCc2ccccc2)cc1)NC(=O)OC(C)(C)C)C(=O)N[C@@H](CC1C(=O)Nc2ccccc21)C(=O)Nc1ccccc1 (stereo partly shown) [CV13, Boc-Tyr(Bn)-Ala-Trp[O]—NHPh]	3.9
C[C@H](NC(=O)[C@H](Cc1ccc(OCc2ccccc2)cc1)NC(=O)OC(C)(C)C)C(=O)N[C@@H](Cc1c[nH]c2ccccc12)C(=O)Nc1ccc(O)cc1 [SP313P, N-Boc-Tyr(Bn)-Ala-Trp-NH(4-OH)Ph]	4
CC(C)(C)OC(=O)N[C@@H](Cc1ccc(O)cc1)C(=O)N[C@@H](CCCNC(=N)N)C(=O)N[C@@H](Cc1c[nH]c2ccccc12)C(=O)NCc1ccccc1 [SP325, N-Boc-Tyr-Arg-Trp-NHCH2Ph] (Boc-Tyr-Arg-Trp-NHBn)	2.5
COC(=O)[C@H](Cc1c[nH]c2ccccc12)NC(=O)[C@H](C)NC(=O)[C@H](Cc1ccc(O)cc1)NC(=O)OC(C)(C)C [NR40, N-Boc-Tyr-Ala-Trp-OCH3] (Boc-Tyr-Ala-Trp-OMe)	35

====

tested on: rabbit 20S proteasome, trypsin-like (T-L) activity; assay: Rabbit 20S proteasome fluorescent assay, trypsin-like activity (Boc-LLR-amc); type: biochemical; conditions: [Compound]=100 μM, pH 7.5, 30° C.
Peptide text beside a SMILES is read from it. * marks the point of attachment. Boc = CC(C)(C)OC(=O)*; NHBn = c1ccc(CN*)cc1; NHPh = c1ccc(N*)cc1; Bn = c1ccc(C*)cc1
// reported T-L Activation factor per item
measureName: T-L Activation factor

C[C@H](NC(=O)[C@H](Cc1ccc(OCc2ccccc2)cc1)NC(=O)OC(C)(C)C)C(=O)N[C@@H](Cc1c[nH]c2ccccc12)C(=O)NCCCCNC(=O)OC(C)(C)C [SP305R, N-Boc-Tyr(Bn)-Ala-Trp-NH(CH2)4NHBoc]	3.2
CC(C)(C)OC(=O)N[C@@H](Cc1ccc(OCc2ccccc2)cc1)C(=O)N[C@@H](CC(N)=O)C(=O)N[C@@H](Cc1c[nH]c2ccccc12)C(=O)NCc1ccccc1 [A416, N-Boc-Tyr(Bn)-Asn-Trp-NHCH2Ph] (Boc-Tyr(Bn)-Asn-Trp-NHBn)	2.2
CC(C)C[C@H](NC(=O)[C@H](Cc1ccc(OCc2ccccc2)cc1)NC(=O)OC(C)(C)C)C(=O)N[C@@H](Cc1c[nH]c2ccccc12)C(=O)NCCCCNC(=O)OC(C)(C)C [SP296P, N-Boc-Tyr(Bn)-Leu-Trp-NH(CH2)4NHBoc]	2.3
COC(=O)[C@H](Cc1c[nH]c2ccccc12)NC(=O)[C@H](C)NC(=O)[C@H](Cc1ccc(O)cc1)NC(=O)OC(C)(C)C [NR40, N-Boc-Tyr-Ala-Trp-OCH3] (Boc-Tyr-Ala-Trp-OMe)	6
COC(=O)[C@H](Cc1c[nH]c2c(Br)cccc12)NC(=O)[C@H](CC(C)C)NC(=O)[C@H](Cc1ccc(OCc2ccccc2)c(I)c1)NC(=O)OC(C)(C)C [A268, N-Boc-3-iodo-Tyr(Bn)-Leu-7-bromo-Trp-OMe]	2
CC(C)C[C@H](NC(=O)[C@H](Cc1ccc(OCc2ccccc2)cc1)NC(=O)OC(C)(C)C)C(=O)N[C@@H](Cc1c[nH]c2ccccc12)C(=O)Nc1ccccc1 [A424P, N-Boc-Tyr(Bn)-Leu-Trp-NHPh] (Boc-Tyr(Bn)-Leu-Trp-NHPh)	1.9
COC(=O)[C@H](CC1C(=O)Nc2ccccc21)NC(=O)CNC(=O)[C@H](Cc1ccc(OCc2ccccc2)cc1)NC(=O)OC(C)(C)C (stereo partly drawn) [NR38, Boc-Tyr(Bn)-Gly-Trp[O]—OCH3]	9.8
CC(C)(C)OC(=O)N[C@@H](Cc1ccc(OCc2ccccc2)cc1)C(=O)NCC(=O)N[C@@H](CC1C(=O)Nc2ccccc21)C(=O)NCc1ccccc1 (stereo partly drawn) [NR15, Boc-Tyr(Bn)-Gly-Trp[O]—NHCH2Ph]	12.3
CC(C)(C)OC(=O)NCCC[C@H](NC(=O)[C@H](Cc1ccc(OCc2ccccc2)cc1)NC(=O)OC(C)(C)C)C(=O)N[C@@H](CC1C(=O)Nc2ccccc21)C(=O)Nc1ccccc1 (stereo partly drawn) [CV12, Boc-Tyr(Bn)-Lys(Boc)-Trp[O]—NHPh]	1.5
CC(C)(C)OC(=O)NCCCCNC(=O)[C@H](Cc1c[nH]c2ccccc12)NC(=O)[C@H](CCCN(C(=N)NC(=O)OCc1ccccc1)C(=O)OCc1ccccc1)NC(=O)[C@H](Cc1ccc(OCc2ccccc2)cc1)NC(=O)OC(C)(C)C [SP311C, N-Boc-Tyr(Bn)-Arg(Z)-2-Trp-NH(CH2)4NHBoc]	1.9
CC(C)(C)OC(=O)NCCCC[C@H](NC(=O)[C@H](Cc1ccc(OCc2ccccc2)cc1)NC(=O)OC(C)(C)C)C(=O)N[C@@H](Cc1c[nH]c2ccccc12)C(=O)Nc1ccccc1 [SP306P, N-Boc-Tyr(Bn)-Lys(Boc)-Trp-NHPh] (Boc-Tyr(Bn)-Lys(Boc)-Trp-NHPh)	1.6
C[C@H](NC(=O)[C@H](Cc1ccc(OCc2ccccc2)cc1)NC(=O)OC(C)(C)C)C(=O)N[C@@H](Cc1c[nH]c2ccccc12)C(=O)NCc1ccccc1 [SP304R, N-Boc-Tyr(Bn)-Ala-Trp-NHCCH2Ph] (Boc-Tyr(Bn)-Ala-Trp-NHBn)	1.7
CC(C)(C)OC(=O)N[C@@H](Cc1ccc(OCc2ccccc2)cc1)C(=O)N[C@@H](CC(N)=O)C(=O)N[C@@H](Cc1c[nH]c2ccccc12)C(=O)Nc1ccc(O)cc1 [SP318C, N-Boc-Tyr(Bn)-Asn-Trp-NH(4-OH)Ph]	1.2
CC(C)C[C@H](NC(=O)[C@H](Cc1ccc(OCc2ccccc2)cc1)NC(=O)OC(C)(C)C)C(=O)N[C@@H](Cc1c[nH]c2ccccc12)C(=O)Nc1ccc(O)cc1 [A418P, N-Boc-Tyr(Bn)-Leu-Trp-NH(4-OH)Ph]	1.6
CC(C)(C)OC(=O)N[C@@H](Cc1ccc(OCc2ccccc2)cc1)C(=O)NCC(=O)N[C@@H](Cc1c[nH]c2ccccc12)C(=O)O [NR35, N-Boc-Tyr(Bn)-Gly-Trp-OH] (Boc-Tyr(Bn)-Gly-Trp-OH)	1.8
